Reference source for all entries: ChEMBL document CHEMBL2321751

log10 EC50 reference
System: Trypanosoma brucei gambiense
Assay details: Antitrypanosomal activity against Trypanosoma brucei gambiense STIB930 after 70 hrs by Alamar Blue assay
Type: functional, organism-based
Settings: STIB930, 70 h
Please keep in mind that the values are log10 of EC50 expressed in nM.

Some compounds with recorded log10 EC50:
Incoming: # value lookup — system Trypanosoma brucei gambiense, readout log10 EC50, item O=C(Nc1ccc2oc(-c3ccc(F)cc3)nc2c1)c1cc([N+](=O)[O-])ccc1Cl
Outgoing: 2.62

Incoming: Hi! What's the reported log10 EC50 for Cc1ccc(-c2nc3ccccc3s2)cc1NC(=O)c1cc([N+](=O)[O-])ccc1Cl on Trypanosoma brucei gambiense?
Outgoing: 1.56

Incoming: Field: log10 EC50 (Trypanosoma brucei gambiense). Entry: CN1CCN(c2cc(Cl)c(C(=O)Nc3cccc(-c4nc5ccccc5s4)c3)cc2[N+](=O)[O-])CC1
Outgoing: 2.20

Incoming: Record lookup: for Trypanosoma brucei gambiense, what log10 EC50 belongs to Nc1nc(N)nc(Nc2ccc([As]3SCC(CO)S3)cc2)n1 (stereo unspecified) [MELARSOPROL] ?
Outgoing: 0.83

Incoming: For the record COc1ccc(-c2nc3ccccc3s2)cc1NC(=O)c1cc([N+](=O)[O-])ccc1Cl , what value of log10 EC50 is listed for Trypanosoma brucei gambiense?
Outgoing: 1.80

Incoming: Lab request: please report log10 EC50 under test system Trypanosoma brucei gambiense for Cc1ccc(-c2nc3ccccc3s2)cc1NC(=O)c1cc([N+](=O)[O-])c(N2CCN(C)CC2)cc1Cl
Outgoing: 0.00

Incoming: Kindly state the measured log10 EC50 obtained for O=C(Nc1cc(-c2nc3ccccc3s2)ccc1F)c1cc([N+](=O)[O-])ccc1Cl with Trypanosoma brucei gambiense.
Outgoing: 2.30

Incoming: Identify the measured log10 EC50 of N=C(N)c1ccc(OCCCCCOc2ccc(C(=N)N)cc2)cc1 [PENTAMIDINE] for Trypanosoma brucei gambiense.
Outgoing: -0.15

Incoming: Lab request: please report log10 EC50 under test system Trypanosoma brucei gambiense for O=C(Nc1cccc(-c2nc3ccccc3s2)c1)c1cc([N+](=O)[O-])ccc1Cl
Outgoing: 2.04

Incoming: Query for Trypanosoma brucei gambiense: what log10 EC50 does the record show for O=C(Nc1ccc(Cl)c(C(F)(F)F)c1)c1cc([N+](=O)[O-])ccc1Cl ?
Outgoing: 2.91

Next:
Incoming: Query for Trypanosoma brucei gambiense: what log10 EC50 does the record show for O=C(Nc1ccc(F)c(-c2nc3ccccc3s2)c1)c1cc([N+](=O)[O-])c(N2CCNCC2)cc1Cl ?
Outgoing: 2.23

====

half-life: recorded values
Assay details: Half life in human liver microsomes
Type: ADME, Microsome
Lab book: enter the figure in min, no units written.

// known answers, use as guide
Incoming: What half-life value was documented for this compound, COc1ccc(-c2nc3ccccc3s2)cc1NC(=O)c1cc([N+](=O)[O-])ccc1Cl ?
Outgoing: 222

Incoming: Need half-life of O=C(Nc1cccc(-c2nc3ccccc3s2)c1)c1cc([N+](=O)[O-])ccc1Cl , thanks.
Outgoing: 60

Incoming: I would be grateful if you could share the reported half-life for CN1CCN(c2cc(Cl)c(C(=O)Nc3cccc(-c4nc5ccccc5s4)c3)cc2[N+](=O)[O-])CC1 .
Outgoing: 198

Now let's try a different one.
Incoming: // returns reported half-life for input Cc1ccc(-c2nc3ccccc3s2)cc1NC(=O)c1cc([N+](=O)[O-])c(N2CCN(C)CC2)cc1Cl
Outgoing: 96

====

// reported pEC50 per item
Tested on: Trypanosoma brucei brucei
Assay details: Antitrypanosomal activity against blood stream stage of Trypanosoma brucei brucei after 48 hrs by Cell Titre Glo assay
Format: functional, organism-based
Lab note — pEC50 values are minus log10 of concentrations in M.

Incoming: Find the recorded pEC50 belonging to O=C(Nc1ccc(-c2nc3ccccc3[nH]2)cc1)c1cc([N+](=O)[O-])ccc1Cl and report it.
Outgoing: 5.39

Incoming: Field request: pEC50 | item: O=C(Nc1nc2ccccc2s1)c1cc([N+](=O)[O-])ccc1Cl
Outgoing: 5.80

Incoming: Entry COc1cccc2sc(NC(=O)c3cc([N+](=O)[O-])ccc3Cl)nc12 has what pEC50?
Outgoing: 6.30

Incoming: Given O=C(Nc1ccc(F)c(Cl)c1)c1cc([N+](=O)[O-])ccc1Cl , state its recorded pEC50.
Outgoing: 6.02

Shifting focus to the compound that follows.
Incoming: For O=C(Nc1ccc2oc(-c3ccccc3Br)nc2c1)c1cc([N+](=O)[O-])ccc1Cl , what is its reported pEC50?
Outgoing: 5.38

====

Assay details: Kinetic solubility of the compound in PBS buffer at pH 7.4 after 18 hrs by UV spectrophotometric analysis
Assay type: physicochemical
Settings: PBS buffer, pH 7.4; read-out: Kinetic_solubility
Catalogue of log10(solubility kinetic at 18 h) values
Answers are given as log10 of solubility kinetic at 18 h in µM.

Incoming: Please give the measured log10(solubility kinetic at 18 h) for this compound: O=C(Nc1ccc(F)c(-c2nc3ccccc3o2)c1)c1cc([N+](=O)[O-])ccc1Cl
Outgoing: -0.57

Incoming: Form field: reported log10(solubility kinetic at 18 h) of O=C(Nc1cccc(-c2ccccc2)c1)c1cc([N+](=O)[O-])ccc1Cl
Outgoing: -0.39

Incoming: I would be grateful if you could share the reported log10(solubility kinetic at 18 h) for Cc1cc(NC(=O)c2cc([N+](=O)[O-])ccc2Cl)cc(-c2nc3ccccc3s2)c1O .
Outgoing: -0.37

New cases:
Incoming: What does the data say about its log10(solubility kinetic at 18 h)? Entry: Cc1ccc(-c2nc3ccccc3s2)cc1NC(=O)c1cc([N+](=O)[O-])c(N(C)C)cc1Cl
Outgoing: -1.52

Incoming: Return reported log10(solubility kinetic at 18 h); argument: COC(=O)C1CCN(c2cc(Cl)c(C(=O)Nc3cc(-c4nc5ccccc5s4)ccc3OC)cc2[N+](=O)[O-])CC1
Outgoing: -0.77

====

System: Trypanosoma brucei brucei
Assay details: Antitrypanosomal activity against blood stream stage of Trypanosoma brucei brucei after 48 hrs by Cell Titre Glo assay
Type: functional, organism-based
pEC50: −log10 of the molar value.
Please mark yes if the recorded pEC50 is equal to or greater than 6, and no if it falls below.

Worked examples, 7 compounds total:
Incoming: # check: pEC50 of O=C(Nc1ccc(-c2nc3ccccc3o2)cc1)c1cc([N+](=O)[O-])ccc1Cl is greater than or equal to 6
Outgoing: no

Incoming: Could you verify whether the entry Cc1ccc2nc(NC(=O)c3cc([N+](=O)[O-])ccc3Cl)[nH]c2c1 shows pEC50 of no less than 6?
Outgoing: no

Incoming: Form field: pEC50 at least 6? Entry: O=C(Nc1cccc(-c2nc3ccccc3o2)c1)c1cc([N+](=O)[O-])ccc1Cl
Outgoing: yes

Incoming: Given the entry O=C(Nc1nc(-c2ccc(F)cc2F)cs1)c1cc([N+](=O)[O-])ccc1Cl , answer whether its pEC50 meets or surpasses 6.
Outgoing: yes

Incoming: Does Cc1sc(NC(=O)c2cc([N+](=O)[O-])ccc2Cl)nc1-c1ccccc1 have a reported pEC50 of at least 6?
Outgoing: yes

Incoming: For this compound, is measured pEC50 6 or higher? Cc1ccc(-c2nc3cc(Cl)ccc3o2)cc1NC(=O)c1cc([N+](=O)[O-])ccc1Cl
Outgoing: no

Incoming: Quick check: does O=C(Nc1ccc([N+](=O)[O-])cc1)c1cc([N+](=O)[O-])ccc1Cl have pEC50 greater than or equal to 6?
Outgoing: no

Alright, here's another compound for you.
Incoming: Answer whether pEC50 of O=C(Nc1ccc2oc(-c3ccccc3F)nc2c1)c1cc([N+](=O)[O-])ccc1Cl is greater than or equal to 6.
Outgoing: no

====

We begin with a simple list: items and their reported half-life.
Assay details: Half life in mouse liver microsomes
Assay type: ADME, Microsome

As a guide, the following entries are already answered.
Incoming: Could you tell me which half-life is on file for COc1ccc(-c2nc3ccccc3s2)cc1NC(=O)c1cc([N+](=O)[O-])ccc1Cl ?
Outgoing: > 4 h

Incoming: Given the molecule Cc1ccc(-c2nc3ccccc3s2)cc1NC(=O)c1cc([N+](=O)[O-])c(N2CCNCC2)cc1Cl , what is its reported half-life?
Outgoing: > 4 h

Incoming: Which half-life value is on record for O=C(Nc1ccc(F)c(-c2nc3ccccc3s2)c1)c1cc([N+](=O)[O-])c(N2CCNCC2)cc1Cl ?
Outgoing: > 4 h

# ---- query molecule ----
Incoming: Value lookup for half-life; key = Cc1ccc(-c2nc3ccccc3s2)cc1NC(=O)c1cc([N+](=O)[O-])ccc1Cl
Outgoing: > 4 h

====

# Lookup of reported pEC50 keyed by entry
Tested on: Trypanosoma brucei gambiense
Assay details: Antitrypanosomal activity against Trypanosoma brucei gambiense STIB930 after 70 hrs by Alamar Blue assay
Format: functional, organism-based
Settings: STIB930, 70 h
Note on units: pEC50 is unitless, being -log10 of a concentration expressed in mol/L.

Check out these entries, answers already filled in.
Incoming: # get_value(readout='pEC50', item= O=C(Nc1nc(-c2ccc(F)c(F)c2)cs1)c1cc([N+](=O)[O-])ccc1Cl )
Outgoing: 6.25

Incoming: Can you share its pEC50? I mean this compound: Cc1ccc(-c2nc3ccccc3s2)cc1NC(=O)c1cc([N+](=O)[O-])c(N2CCNCC2)cc1Cl
Outgoing: 8.70

Incoming: Which pEC50 value is on record for O=C(Nc1cccc(-c2nc3ccccc3o2)c1)c1cc([N+](=O)[O-])ccc1Cl ?
Outgoing: 6.68

Incoming: # lookup: pEC50 of COc1ccc(-c2nc3ccccc3s2)cc1NC(=O)c1cc([N+](=O)[O-])c(N2CCN(C)CC2)cc1Cl
Outgoing: 7.14

# context switch: different compound, same pEC50
Incoming: pEC50 lookup needed for O=C(Nc1ccc(F)c(-c2nc3ccccc3s2)c1)c1cc([N+](=O)[O-])ccc1Cl , thanks.
Outgoing: 7.20
